Test: in vitro
Details: human, hela cells, % viability
Reported viability at 28.5 h, 10 µM is given for each of the following compounds.

{"compound": "COc1cccc(CN2CCCC(NC(=O)NCc3cccs3)C2)c1 (stereo not drawn)", "viability at 28.5 h, 10 µM": "73.3%"}
{"compound": "CCC(CC)C(=O)N1CCC(CNc2cnc(-c3ccc(S(C)(=O)=O)cc3)cn2)CC1", "viability at 28.5 h, 10 µM": "99.5%"}
{"compound": "COc1ccc2c(c1Br)C=C(n1ccnc1)CC2", "viability at 28.5 h, 10 µM": "76.9%"}

###

Experiment: in vitro
Conditions: human, hela cells, % viability

{"compound": "CC(NC(=O)n1ccc2c(N3CCNCC3)cccc21)c1ccccc1 (centres unmarked) [CBK003729C]", "viability at 28.5 h, 10 µM (%)": 90.7}
{"compound": "O=c1n(CC2CCCCC2)c2ccccc2n1S(=O)(=O)c1ccc2ccccc2c1", "viability at 28.5 h, 10 µM (%)": 92.5}
{"compound": "CN(C)CCNC(=O)c1cccc(-c2cncc(Nc3cccc(Cl)c3)n2)c1", "viability at 28.5 h, 10 µM (%)": 104}
{"compound": "CC1Oc2ccccc2OC1C(=O)Nc1nnc(Cc2ccccc2)s1 (centres unmarked)", "viability at 28.5 h, 10 µM (%)": 90.5}
{"compound": "CN(c1ccccc1)C1CCN(c2nc3c(cnn3C)c(=O)[nH]2)CC1", "viability at 28.5 h, 10 µM (%)": 96.3}
{"compound": "CN1CCN(NC(=O)c2cc(C(=O)c3ccc(Cl)cc3Cl)c[nH]2)CC1", "viability at 28.5 h, 10 µM (%)": 91.4}
{"compound": "COc1ccc(C(c2ccccc2C)N(C)C(=O)C2CCNCC2)cn1 (centres unmarked)", "viability at 28.5 h, 10 µM (%)": 100}
{"compound": "CCN(CC)c1ccc(CN(CCCN(C)C)C(=O)NCC2CCCCC2)cc1", "viability at 28.5 h, 10 µM (%)": 106}
{"compound": "O=C(c1cscn1)N1CCN(c2ncccn2)CC1", "viability at 28.5 h, 10 µM (%)": 87.9}
{"compound": "COC(=O)c1ccc(CSc2nnc(-n3sc4ccccc4c3=O)s2)cc1", "viability at 28.5 h, 10 µM (%)": 90.6}
{"compound": "Cc1noc(C)c1CC(=O)NC(C)CCc1ccc(F)cc1 (centres unmarked)", "viability at 28.5 h, 10 µM (%)": 89.8}
{"compound": "CN(C)CCN1CCN(c2nc(-c3cccc4cccnc34)cnc2N)CC1", "viability at 28.5 h, 10 µM (%)": 94.3}
{"compound": "COC(=O)[C@@H](C)NC(=O)[C@@H]1CN(C(=O)NC(C)C)CCN1C(=O)c1cccs1", "viability at 28.5 h, 10 µM (%)": 110}
{"compound": "CCn1cc(C(=O)N2CCCCC2c2nc3ccccc3[nH]2)c(C)n1 (centres unmarked)", "viability at 28.5 h, 10 µM (%)": 91.5}
{"compound": "O=C(Cn1nc(C(=O)O)c2ccccc2c1=O)NCc1ccc(Cl)cc1Cl", "viability at 28.5 h, 10 µM (%)": 85.4}
{"compound": "O=C(Nc1ccncc1)OCCc1cccnc1", "viability at 28.5 h, 10 µM (%)": 94.2}
{"compound": "Cc1c(C=Cc2cc(C(=O)O)c3ccccc3n2)cc(C#N)n1C", "viability at 28.5 h, 10 µM (%)": 104}

###

Test: in vitro
Conditions: human, hela cells, % viability

{"compound": "COc1ccc(Cl)cc1N1CCN(Cc2cc(OC)c(OC)c(OC)c2)CC1", "viability at 28.5 h, 10 µM, %": 43.3}
{"compound": "CC(=O)OC(c1ccccc1)c1nc2ccccc2[nH]1 (stereo not drawn)", "viability at 28.5 h, 10 µM, %": 97.1}
{"compound": "CN(C)CCCNc1cc(Cl)c(S(=O)(=O)N2CCCCC2)cc1C(=O)O", "viability at 28.5 h, 10 µM, %": 95.5}
{"compound": "COc1ccc2c(c1)nc1n2CCC1O (stereo not drawn)", "viability at 28.5 h, 10 µM, %": 96.9}
{"compound": "Cc1cnn(C2CCN(C(=O)NC(C)C3OCCc4sccc43)C2)c1 (stereo not drawn)", "viability at 28.5 h, 10 µM, %": 96.8}
{"compound": "CC(C)c1ccc(OCC(=O)NCc2ccccn2)c(Br)c1", "viability at 28.5 h, 10 µM, %": 99.2}
{"compound": "Cc1cc(NC(=O)CN2CC=C(c3ccc(C)o3)CC2)no1", "viability at 28.5 h, 10 µM, %": 106}
{"compound": "CCOc1ccc(/N=c2\\scc(-c3ccc(OC)c(Br)c3)n2CCc2ccccc2)cc1 [CBK263654B]", "viability at 28.5 h, 10 µM, %": 74.7}
{"compound": "CN1CCC(CN(C)CC2CCCN(Cc3ccccc3)C2)C1 (stereo not drawn)", "viability at 28.5 h, 10 µM, %": 90.7}
{"compound": "Nc1ncnc2c1nc(N)n2[C@H]1C[C@@H](O)[C@@H](CO)O1", "viability at 28.5 h, 10 µM, %": 101}
{"compound": "Nc1ncc(-c2ccc(C(=O)N3CCOCC3)cc2)nc1C(=O)Nc1ccccc1", "viability at 28.5 h, 10 µM, %": 85.7}
{"compound": "COc1cccc(NC(=O)Cn2cc(OC)c(=O)cc2CN2CCOCC2)c1", "viability at 28.5 h, 10 µM, %": 87.2}
{"compound": "CCC(C)(C)c1ccc(S(=O)(=O)N2CCCN(Cc3cn(C)c4ccccc34)CC2)cc1", "viability at 28.5 h, 10 µM, %": 91.2}
{"compound": "O=C(C[C@@H]1O[C@H](CNCc2cccc(Cl)c2)[C@@H](O)[C@H]1O)N1CCc2ccccc21", "viability at 28.5 h, 10 µM, %": 89}
{"compound": "O=C(c1nc2ccccc2[nH]1)N1CCc2ccccc2C1", "viability at 28.5 h, 10 µM, %": 100}
{"compound": "OC1CCCn2c1nc1cc(Cl)ccc12 (stereo not drawn)", "viability at 28.5 h, 10 µM, %": 72.4}
{"compound": "c1ccc(CCCN2CCN(Cc3cccc4ccccc34)CC2)cc1", "viability at 28.5 h, 10 µM, %": 103}
{"compound": "OC(c1cccs1)C1CCN(Cc2ccc(Cn3cccn3)cc2)CC1 (stereo not drawn)", "viability at 28.5 h, 10 µM, %": 83.6}
{"compound": "O=C(CCC1CCCO1)N1CCCC(COc2ccc(F)cc2)C1 (stereo not drawn)", "viability at 28.5 h, 10 µM, %": 97.7}
{"compound": "CC(CCN1CC2C[C@@H](O)CN2C[C@H]1C)c1ccccc1 (stereo partly drawn)", "viability at 28.5 h, 10 µM, %": 82.4}
{"compound": "CN1CCC(N2CCN(C(=O)Nc3cccnc3)CC2)CC1", "viability at 28.5 h, 10 µM, %": 93.1}
{"compound": "S=C(NC1=NCCS1)Nc1ccccc1", "viability at 28.5 h, 10 µM, %": 95.2}
{"compound": "O=C(O)c1cccc2c1C(=O)N(Cc1c(F)cccc1Cl)C2", "viability at 28.5 h, 10 µM, %": 111}
{"compound": "CC(=O)N1CCN(C(=O)C[C@@H]2C[C@@H](C(C)C)[C@H](CNC(=O)c3cccnc3)C=C2C)CC1", "viability at 28.5 h, 10 µM, %": 102}
{"compound": "O=C(Nc1cnn(C23CC4CC(CC(C4)C2)C3)c1)c1cnn2c(C(F)(F)F)cc(-c3ccco3)nc12", "viability at 28.5 h, 10 µM, %": 52.4}
{"compound": "CCOc1ccc(S(=O)(=O)N2CCC(C(=O)N3CCN(C)CC3)CC2)cc1", "viability at 28.5 h, 10 µM, %": 88.8}
{"compound": "Cc1nc2c(c(=O)[nH]1)CC[C@@H]1CN(C(=O)c3occ4ccccc34)C[C@H]21", "viability at 28.5 h, 10 µM, %": 101}

###

Reported viability at 28.5 h, 10 µM is given for each of the following compounds.
Assay: in vitro
Settings: human, hela cells, % viability

{"compound": "O=C(O)CC(NCc1ccco1)C(=O)Nc1cccc(F)c1 (centres unmarked) [CBK286910]", "viability at 28.5 h, 10 µM, %": 97}
{"compound": "COc1ccc(CCCC(=O)NCc2sc(-c3ccccc3)nc2C)cc1OC [CBK092353]", "viability at 28.5 h, 10 µM, %": 85.2}
{"compound": "Nc1nc(OCCOc2ccccc2)cnc1-c1ccsc1 [CBK145163]", "viability at 28.5 h, 10 µM, %": 109}
{"compound": "Cc1cccc(C(=O)Nc2nnc(C3=COCCO3)o2)c1 [CBK287406]", "viability at 28.5 h, 10 µM, %": 94}
{"compound": "CC(C)C[C@@H]1N[C@H](C(=O)NCc2cccnc2)Cc2c[nH]c3cccc1c23 [CBK289418]", "viability at 28.5 h, 10 µM, %": 90}
{"compound": "CC(C)COc1ccc(-c2nonc2NC(=O)c2ccccc2F)cc1 [CBK299831]", "viability at 28.5 h, 10 µM, %": 86}
{"compound": "Cc1n[nH]cc1CN(C)c1cc([C@H]2C[C@@H](N)C2)nc(C2CC2)n1 [CBK307544]", "viability at 28.5 h, 10 µM, %": 110}
{"compound": "Cc1cc(-c2cc(=O)n(CCc3ccccc3)nc2-c2ccco2)on1 [CBK282879]", "viability at 28.5 h, 10 µM, %": 105}
{"compound": "CC(C)CC(=O)Nc1nc(OCC(F)(F)F)cnc1-c1ccc(Cl)cc1Cl [CBK145356]", "viability at 28.5 h, 10 µM, %": 94.2}
{"compound": "O=C1CC(SCc2nc3ccccc3[nH]2)C(=O)N1c1cccc(Cl)c1 (centres unmarked) [CBK266731]", "viability at 28.5 h, 10 µM, %": 94.5}
{"compound": "O=C(COC(=O)c1ccncc1)c1ccc(OC(=O)c2ccccc2)cc1 [CBK265169]", "viability at 28.5 h, 10 µM, %": 87.3}
